The reported measurements were obtained from paper PMC5394958.

# Tested on: BCR-ABL1 or FLT3
# Procedure summary: Ex vivo incubation of patient whole blood, phosphorylation of CRKL or FLT3
# Format: cell-based
# Reported conditions: Homo sapiens, read-out: IC50 for inhibition of phosphorylation
pIC50: −log10 of the molar value.
Quantity kind: pIC50

Please look up its pIC50: CNC(=O)c1cc(Oc2ccc(NC(=O)Nc3cc(C(C)(C)C)nn3-c3ccc4ncccc4c3)c(F)c2)ccn1 [rebastinib]
> 6.70

====

# Procedure summary: Plasma pharmacokinetics after multiple oral doses
# Type: in vivo, human
# Reported conditions: human, plasma, oral, median Tmax, PIC
Quantity kind: Tmax (h)
Return type: number; implicit unit h.

// lookup Tmax for CNC(=O)c1cc(Oc2ccc(NC(=O)Nc3cc(C(C)(C)C)nn3-c3ccc4ncccc4c3)c(F)c2)ccn1 [rebastinib]
2

====

# Procedure summary: Human plasma protein binding
# Format: in vitro ADME
Quantity kind: fraction unbound
API doc: respond with a numeric literal and nothing else, no unit.

Given the entry `CNC(=O)c1cc(Oc2ccc(NC(=O)Nc3cc(C(C)(C)C)nn3-c3ccc4ncccc4c3)c(F)c2)ccn1` , report its measured fraction unbound.
0.0035

====

# Procedure summary: Plasma pharmacokinetics after multiple oral doses
# Type: in vivo, human
# Reported conditions: human, plasma, oral
Quantity kind: half-life

Form field: reported half-life of CNC(=O)c1cc(Oc2ccc(NC(=O)Nc3cc(C(C)(C)C)nn3-c3ccc4ncccc4c3)c(F)c2)ccn1 [rebastinib]
12 to 15 h
